# Tgt: 3-hydroxy-3-methylglutaryl-coenzyme A reductase (Rattus norvegicus, UniProt P51639)
# Sequence (P51639 whole entry): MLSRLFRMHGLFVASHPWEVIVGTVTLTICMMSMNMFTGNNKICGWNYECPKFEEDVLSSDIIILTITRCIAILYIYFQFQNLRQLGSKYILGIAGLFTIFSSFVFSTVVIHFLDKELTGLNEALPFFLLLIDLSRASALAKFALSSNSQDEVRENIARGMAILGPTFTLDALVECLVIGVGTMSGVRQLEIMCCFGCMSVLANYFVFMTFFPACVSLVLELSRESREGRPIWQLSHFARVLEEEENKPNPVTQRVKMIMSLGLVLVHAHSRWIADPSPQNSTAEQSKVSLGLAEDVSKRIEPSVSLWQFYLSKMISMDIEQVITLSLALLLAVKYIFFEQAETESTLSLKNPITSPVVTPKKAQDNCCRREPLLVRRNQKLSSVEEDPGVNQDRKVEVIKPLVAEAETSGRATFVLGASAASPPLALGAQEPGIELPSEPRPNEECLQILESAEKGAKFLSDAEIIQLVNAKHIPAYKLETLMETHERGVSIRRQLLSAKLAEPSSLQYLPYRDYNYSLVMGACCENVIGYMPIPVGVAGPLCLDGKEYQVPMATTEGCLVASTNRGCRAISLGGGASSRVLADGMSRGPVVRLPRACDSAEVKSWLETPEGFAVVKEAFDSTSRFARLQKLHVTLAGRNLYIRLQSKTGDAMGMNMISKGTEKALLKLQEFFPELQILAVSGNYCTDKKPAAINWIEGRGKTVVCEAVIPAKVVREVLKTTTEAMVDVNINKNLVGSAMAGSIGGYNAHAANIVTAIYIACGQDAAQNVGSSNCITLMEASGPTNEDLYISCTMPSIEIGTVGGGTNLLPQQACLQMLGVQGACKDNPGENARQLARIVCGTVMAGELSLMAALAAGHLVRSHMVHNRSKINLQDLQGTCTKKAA
# Assay Summary: Inhibitory activity against partially purified rat liver HMG-CoA reductase in vitro; 1.9-5.3
Readout: IC50 (µM)

Molecule	Tgt	IC50 / µM
CCCC1CCCc2c1nn(-c1ccc(F)cc1)c2/C=C/[C@@H](O)C[C@@H](O)CC(=O)O (some centres not stated)	3-hydroxy-3-methylglutaryl-coenzyme A reductase (Rattus norvegicus, UniProt P51639)	3.4
CCC(C)C1CCCc2c1nn(-c1ccc(F)cc1)c2/C=C/[C@@H](O)C[C@@H](O)CC(=O)O (some centres not stated)	3-hydroxy-3-methylglutaryl-coenzyme A reductase (Rattus norvegicus, UniProt P51639)	3.2

====

# Tgt: 3-hydroxy-3-methylglutaryl-coenzyme A reductase (Rattus norvegicus)
# Assay Summary: Inhibitory activity against partially purified rat liver HMG-CoA reductase in vitro; 0.021-0.036
pIC50: −log10 of the molar value.
Readout: pIC50

Molecule	pIC50
O=C(O)C[C@H](O)C[C@H](O)/C=C/c1c2c(nn1-c1ccc(F)cc1)C(Cc1cccc3ccccc13)CCC2 (some centres not stated)	7.55
Cc1ccc(CC2CCCc3c2nn(-c2ccc(F)cc2)c3/C=C/[C@@H](O)C[C@@H](O)CC(=O)O)cc1 (some centres not stated)	7.55

====

# Tgt: 3-hydroxy-3-methylglutaryl-coenzyme A reductase (Rattus norvegicus)
# Assay Summary: Inhibitory activity against partially purified rat liver HMG-CoA reductase in vitro; 1.2-3.3
Readout: IC50 (nM)
Could you give me the number in nM? Just the number is fine.

Exam item: Which IC50 reading was recorded for the compound CCC1CCCc2c1nn(-c1ccc(F)cc1)c2/C=C/[C@@H](O)C[C@@H](O)CC(=O)O (stereo partly specified) ?
Marked response: 2000
